Just for reference, patent US11440913B2 is where these values come from.

biological target: His-GST-TVMV-hRIPK1(1-324) (Homo sapiens (Human), UniProt Q13546); assay: RIPK1 HTRF Binding Assay; details: HTRF binding, 1 h at rt; read-out: RIPK1 (IC50)
Sequence (Q13546 1-324): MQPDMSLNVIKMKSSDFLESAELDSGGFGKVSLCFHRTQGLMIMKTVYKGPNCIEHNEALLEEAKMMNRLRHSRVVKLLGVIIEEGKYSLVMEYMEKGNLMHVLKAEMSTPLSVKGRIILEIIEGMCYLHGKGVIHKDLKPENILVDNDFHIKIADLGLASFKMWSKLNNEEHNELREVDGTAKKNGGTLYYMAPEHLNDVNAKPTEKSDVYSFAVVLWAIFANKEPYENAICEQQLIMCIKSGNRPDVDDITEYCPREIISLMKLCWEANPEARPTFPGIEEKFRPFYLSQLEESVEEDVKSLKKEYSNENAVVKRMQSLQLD
Where a name gives a salt, the structure may show the parent alone.
As shown below, each of these molecules has a reported IC50 value.

Solved entries (count: 6):
CC(=O)Nc1cn2nc(-c3cnc(C)c(C(=O)NCC[C@@H](O)c4ccc(Cl)cc4)c3)ccc2n1
62 nM
[2H]C([2H])(NC(=O)c1cc(-c2ccc3nc(NC(=O)CC)cn3n2)cnc1OC)c1cc(OC(F)(F)F)ccc1F
257 nM
CC(=O)Nc1cn2nc(-c3cnc(C)c(CNC(=O)c4cc(OC(F)(F)F)ccc4F)c3)ccc2n1
101 nM
CCc1ncc(-c2ccc3nc(NC(C)=O)cn3n2)cc1C(=O)NCc1cc(C(F)(F)F)ccc1F
53 nM
CC(=O)Nc1cn2nc(-c3cnc(C)c(C(=O)NCc4cccnc4OCC4CCCC4)c3)ccc2n1
54 nM
Cc1nc(C)c(-c2ccc3nc(NC(=O)CO)cn3n2)cc1C(=O)N[C@H](C)c1cc(C(F)(F)F)ccc1F
48 nM

Prompt line: // Input: COc1ncc(-c2ccc3nc(NC(C)=O)cn3n2)cc1C(=O)NCc1ncccc1OC1CCCC1 . Output its IC50 only.
Response line: 12 nM

Prompt line: // Input: CC(=O)Nc1cn2nc(-c3cc(C(=O)NCc4cc(F)ccc4OCC(F)(F)F)c(C)nc3C)ccc2n1 [Example 72, TFA] . Output its IC50 only.
Response line: 17 nM

Prompt line: // Input: COc1ncc(-c2ccc3nc(NC(C)=O)c(C)n3n2)cc1C(=O)NCc1ccc(F)c(OC(F)(F)F)c1 . Output its IC50 only.
Response line: 87 nM
